# experimentalTarget: T1, biotinylated cynoPD1-ECD-Biotin (cynomolgus, UniProt B0LAJ3 25-170, biotinylated; the site and any Avi or His tag are not stated in the passages shown)
# T1 construct: also called cyPD1
# T1 sequence (B0LAJ3 entry or part of it limits assumed): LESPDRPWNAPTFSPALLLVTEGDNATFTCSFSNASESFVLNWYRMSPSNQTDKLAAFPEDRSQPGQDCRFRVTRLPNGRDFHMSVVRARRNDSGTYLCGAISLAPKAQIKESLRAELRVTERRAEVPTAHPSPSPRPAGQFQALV
# assayText: ELISA on coated cynoPD1-ECD-Biotin
observedProperty: EC50
Output should be the measured figure followed by the unit it is expressed in.

Here's what some known entries look like.
{"binder": "PD1-0050 (antibody, V domains shown) VH: DVQLQESGPGLVKPSQSLSLTCTVTGYSITSDYAWNWIRQFPGNKLEWMGYITYTGRTSYNPSLKSRISITRDTSKNQFFLQLNSVTTEDTATYYCAREMDYYGSTLDYWGQGTTLTVSS VL: KIVLTQSPASLAVSLRQRATISCRASESVDRYGNSFIHWYQQKPGQPPKVLIYRASNLESGFPARFSGSGSRTDFTLTIDPVEADDAATYYCQQNNEDPYTFGSGTKLEIK", "EC50": "0.0098 µg/mL"}
{"binder": "PD1-0078 (antibody, V domains shown) VH: QVQLQQPGAELVKPGASVKMSCKASGYTFTSTWMHWVKQRPGQGLEWIGAIDPSDSYTTYNQKFKGKATLTVDTSSTTAYMQLSSLTSEDSAVYYCTRSPFDYWGQGTTLTVSS VL: DIVMTQSHKFMSTSVGDRVSITCKASQDVSTAVAWYQQKPGQSPKLLIYSASYRYTGVPDRFTGSGSGTDFTFAISSVQAEDLAVYYCQQHYSHPFTFGSGTKLEIK", "EC50": "0.0224 µg/mL"}

Now, please, on to the next binder.
EC50 for PD1-0098 (antibody, V domains shown, Mouse hybridoma antibody) VH: DVQLQESGPGLVKPSQSLSLTCTVTGYSITSDYAWNWIRQFPGDKLEWLGYITYSGFTNYNPSLKSRISISRDTSKNQFFLQLNSVATEDTATYYCARWHGSAPWYFDYWGRGTTLTVSS VL: DVLMTQTPLSLPVSLGDQASISCRSSQNIVHSDGNTYLEWYLQKPGQSPNLLIYKVSRRFSGVPDRFSGSGSGTDFTLKISRVEAEDLGVYYCFQGSHFPLTFGAGTKLELK ?
0.0546 µg/mL
